Reported values of Neutralization PSV IC50 for individual entries
# system_name: VP1 capsid protein on BKV pseudovirions of genotype Ia (BK-D; JF894228) (BK virus genotype Ia (BK-D))
# test_name: cell-based or functional assay
# number only, unit mg/L dropped from output

antibody F4P5 (antibody, V domains shown) VH: EVQLVESGGGVVQPGRSLRLSCAASGFTFSNFGMHWVRQPPGKGLEWVAVISYDGSDKFYADSVKGRFTISRDNFKNTLYVQMNSLRAEDTAVYYCAKDRVRTKYYYDHSGPFDYWGRGTLVTVSS VL: SYELTQPPSVSVAPGQTARIACGGNNIGSKSVHWYQQRPGQAPVLVVYDDDDRPSGIPERFSGSNSGNTATLTISRVEAGDEADYFCQVWMTNSDRPVFGGGTKLTVL; 0.0008
antibody E6P5 (antibody, V domains shown) VH: EVQLVESGGGLVQPGRSLRLSCSASGFTFDDHAMHWVRQAPGKGLEWVAGINWNSASIVYADSVKGRFTISRDNVKNSLYLQMNSLRADDTALYYCAKDFGLWFGESRGIDAWGRGTTVTVSS VL: DIVMTQSPLSLPVTPGEPASISCRPSQSLLHSNGYNYLNWYLQKPGRSPQLLIYLGSNRASGVPDRFSGSGSGTDFTLKISRVEAEDVGIYYCMQALQTPITFGQGTRLEIK; 0.0008

For the binder shown here, antibody B7P6 (antibody, V domains shown) VH: EVQLVQSGAELKKPGESLKISCKGSGFTFTNYWIAWVRQMPGKGLEWMGIIYPDDSDARYSPSFEGQVTISVDKSISTAYLQWSSLKASDTAIYYCARGGFCSGSVCYNPAWFDLWGQGTLVTVSS VL: DIQMTQSPSSLSASVGDRVTITCRASQTINTYLNWYLQKPGKAPKLLISDASSLETGVPSRFSGSGSGTDFTLTISSLQPDDFATYYCQQSYSTPLTFGGGTKVEIK , give the reported Neutralization PSV IC50.
0.0479

Which value of Neutralization PSV IC50 has been reported for antibody C4P6 (antibody, V domains shown) VH: QVQLQESGPGLVRPSETLSLTCTVSGGSISPYYWNWIRQPPGKGLEWIGYIYYSGNTKYNPSLKSRVTISVDTSKNQFSLKLSSVSAADTAVYYCARDSCSGTCYLGGNWFDPWGQGTLVTVSS VL: QSVLTQPPSVSGAPGQRVTISCTGSSSNIGANNDVHWYQHLPGTAPKLLIYGNNHRPSGVPDRFSGSKSGTSASLAITGLQAEDEADYYCQSYDSSLSTSKVFGGGTKLTVL in the records?
0.32

Data request, read-out Neutralization PSV IC50, for antibody G11P1 (antibody, V domains shown) VH: EVQLVESGGGLVQPGGSLRLSCAASGFTFRSYSMDWVRQAPGKGLEWVSYISGSSNQKYYTDSVRGRFTISRDNAKNSLFLQMNSLRAEDSAVYYCAREDDILTPLYGMDVWGPGTTVTVSS VL: EIVLTQSPDTLSLSPGARATLSCRASQSVRSNYLAWYQQKPGQAPRLLIYGASSRATAIPDRFSGSGSGTDFTLTITRLEPEDFAVYYCHQYASSPRTFGQGTKVEIK
0.112

Endpoint output: Neutralization PSV IC50 of antibody G7P3 (antibody, V domains shown) VH: EVQLVESGGGLVQPGGSLRLSCAASGFSFGSYSMNWVRQAPGKGLEWVSHISSGSSSIYYADSVKGRFTISRDSVKNSLYLQMNNLRAEDTAVYYCARGWTGYDAFDIWGQGTMVTVSS VL: DIQMTQSPSSLSASVGDRVTITCRASQVISNYLAWYQEKPGKVPKLLIYAASTLQSGVPSRFSGSGTGTDFTLTIRSLQPEDVATYYCQKYNNAPLTFGGGTKVEIK . Value?
0.0008

Need Neutralization PSV IC50 of antibody B8P7 (antibody, V domains shown) VH: QVQLQESGPGLVRPSETLSLTCTVSGGSISPYYWNWIRQPPGKGLEWIGYIYYSGNTKYNPSLKSRVTISVDTSKNQFSLKLSSVSAADTAVYYCARDSCSGTCYLGDNWFDPWGQGTLVTVSS VL: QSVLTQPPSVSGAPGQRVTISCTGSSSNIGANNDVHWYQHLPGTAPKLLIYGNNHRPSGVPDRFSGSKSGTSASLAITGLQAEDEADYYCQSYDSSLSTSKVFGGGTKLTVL , thanks.
0.0019
